Data origin: patent US20250115597A1

- targetUnderTest: TYK2-JH2 domain (Homo sapiens, UniProt P29597)
- Construct: IC50 on JH2 domain activity (nM)
- Sequence (P29597 589-875 limits assumed): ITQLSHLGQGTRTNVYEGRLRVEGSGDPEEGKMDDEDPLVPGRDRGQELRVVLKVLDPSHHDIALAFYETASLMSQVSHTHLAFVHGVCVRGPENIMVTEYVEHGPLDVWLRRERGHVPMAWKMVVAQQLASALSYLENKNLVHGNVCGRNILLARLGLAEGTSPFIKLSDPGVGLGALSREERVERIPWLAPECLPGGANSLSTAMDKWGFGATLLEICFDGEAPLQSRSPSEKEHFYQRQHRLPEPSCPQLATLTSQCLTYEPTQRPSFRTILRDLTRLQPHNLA
- measurementNotes: Binding activity test for JH2 domain of TYK2 (Tb-antibody/tracer FRET)
- conditionContext: ratio JAK1-JH2 IC50 / TYK2-JH2 IC50
propertyName: JAK1/TYK2 selectivity

* [2H]C([2H])([2H])NC(=O)c1cnc(NC(=O)C2CC2)cc1Nc1ccn2nccc2c1OC [Example 258] | 17.9

A = [2H]C([2H])([2H])NC(=O)c1cnc(NC(=O)C2CC2)cc1Nc1ccn2ncc(CC)c2c1OC [Example 166]
B = CCn1ncc2cnc(Nc3cc(NC(=O)C4CC4)ncc3C(=O)NC)c(OC)c21 [Example 261]
C = [2H]C([2H])([2H])NC(=O)c1cnc(NC(=O)C2CC2)cc1Nc1ccc2cnn(C)c2c1OC [Example 206]
# sort list by recorded JAK1/TYK2 selectivity, greatest to least When ranking, write the labels in the order the request describes.
A, B, C
(A: 88.3, B: 47.4, C: 17.6)

1 = [2H]C([2H])([2H])NC(=O)c1cnc(Nc2ccncn2)cc1Nc1cc(F)c2cnn(CC)c2c1OC [Example 157]
2 = [2H]C([2H])([2H])NC(=O)c1cnc(Nc2ccc(N3CCOCC3)cn2)cc1Nc1ccc2cnn(CC)c2c1OC [Example 273]
Hey, which is lower on measured JAK1/TYK2 selectivity, 1 or 2 ? Reply briefly: the label of your chosen item.
2
